biological target: Endothelin receptor type B (Sus scrofa); experiment: Binding affinity to endothelin B receptor measured by inhibition of [125I]ET-3 binding recombinant pig ET-B receptor expressed in COS-7 cells
Sequence (P35463 whole entry): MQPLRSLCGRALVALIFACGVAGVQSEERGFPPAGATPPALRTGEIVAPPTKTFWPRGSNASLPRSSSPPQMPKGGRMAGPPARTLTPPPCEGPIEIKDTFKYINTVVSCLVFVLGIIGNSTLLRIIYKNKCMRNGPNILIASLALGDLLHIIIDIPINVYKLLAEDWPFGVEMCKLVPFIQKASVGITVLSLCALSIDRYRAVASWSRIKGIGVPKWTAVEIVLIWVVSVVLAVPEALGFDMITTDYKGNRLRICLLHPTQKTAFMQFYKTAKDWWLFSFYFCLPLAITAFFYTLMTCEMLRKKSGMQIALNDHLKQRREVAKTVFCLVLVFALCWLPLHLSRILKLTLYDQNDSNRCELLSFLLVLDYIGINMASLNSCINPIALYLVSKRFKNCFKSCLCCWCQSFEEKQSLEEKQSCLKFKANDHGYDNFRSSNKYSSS
pIC50: −log10 of the molar value.
ENDPOINT LABEL: pIC50

> print(dat)
                                   compound  observed
1  CCCCC1=C(C(=O)O)[C@@H](c2ccc3c(c2)OCO3)Oc2ccc(OC(C)C)cc21      6.40
2  CCCCOc1ccc2c(c1)C(c1ccc3c(c1)OCO3)=C(C(=O)O)C(c1ccc(OC3CCCC3)cc1)O2 (centres undefined)      5.66
3  CCOC1=C(C(=O)O)C(c2ccc3c(c2)OCO3)Oc2ccccc21 (centres undefined)      4.82
4  CCCOc1ccc2c(c1)OC(c1ccc3c(c1)OCO3)C(C(=O)O)=C2c1ccc(OC)cc1 (centres undefined)      5.64
5  CCOC1=C(C(=O)O)C(c2ccc3c(c2)OCO3)Oc2ccc(OC(C)C)cc21 (centres undefined)      5.55
6  CCCOC1=C(C(=O)O)C(c2ccc3c(c2)OCO3)Oc2ccccc21 (centres undefined)      5.00
7  COc1ccc(C2=C(C(=O)O)C(c3ccc4c(c3)OCO4)Oc3ccc(OC(C)CO)cc32)cc1 (centres undefined)      6.77
8  COc1cccc(C2=C(C(=O)O)C(c3ccc4c(c3)OCO4)Oc3ccccc32)c1 (centres undefined)      5.55
9  CCCOc1ccc2c(c1)C(c1ccc3c(c1)OCO3)=C(C(=O)O)C(c1ccc(OC)cc1)O2 (centres undefined)      7.14
